target.system: KRASG12D (Homo sapiens, UniProt P01116, G12D)
Sequence (P01116 1-188 isoform P01116-2 G12D): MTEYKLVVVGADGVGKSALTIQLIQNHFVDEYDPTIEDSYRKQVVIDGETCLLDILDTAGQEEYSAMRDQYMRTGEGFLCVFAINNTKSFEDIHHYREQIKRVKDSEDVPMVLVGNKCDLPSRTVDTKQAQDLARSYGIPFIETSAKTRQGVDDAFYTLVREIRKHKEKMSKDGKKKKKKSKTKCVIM
test.name: Bio-Biochem-PPI-HTRF Ras-SOS1 interaction assay (KRAS G12D)
assay.conditions: 5 nM
pIC50: −log10 of the molar value.
Documented pIC50 across a set of molecules

Examples with answers:
[[record]]
smiles_str = "C#Cc1c(F)ccc2cc(O)cc(-c3ncc4c(N5CCCCC6(CN(C(=O)[C@@H]7CC7(F)F)C6)C5)nc(OC[C@@]56CCCN5C[C@H](F)C6)nc4c3F)c12"
target_system = "KRASG12D (Homo sapiens, UniProt P01116, G12D)"
test_value = "> 5.30"

[[record]]
smiles_str = "C[C@@H]1CN(C(=O)N2CC3(CCCCN(c4nc(OC[C@@]56CCCN5C[C@H](F)C6)nc5c(F)c(-c6ccc(F)c7sc(N)c(C#N)c67)c(Cl)cc45)C3)C2)CCO1"
target_system = "KRASG12D (Homo sapiens, UniProt P01116, G12D)"
test_value = "> 5.30"


Query: Given `N#Cc1c(N)sc2c(F)ccc(-c3c(Cl)cc4c(N5CCCCC6(CN(C(=O)C7(C(F)F)CC7)C6)C5)nc(OC[C@@]56CCCN5C[C@H](F)C6)nc4c3F)c12` , state its recorded pIC50.
Result: > 5.30
